The origin of these recorded values is ChEMBL document CHEMBL1153906.

- EXPERIMENT_DESCRIPTION: Selectivity ratio of Ki for human carbonic anhydrase 2 to Ki for Caenorhabditis elegans carbonic anhydrase 4b
RESULT_TYPE: Ratio Ki
Numbers only.

# STRUCTURE_STRING, Ratio Ki
data = [
    ("NNC(=O)c1[nH]c2ccc(S(N)(=O)=O)cc2c1-c1cccc(F)c1", 0.86),
]

Could I get Ratio Ki for every one of these entries?
1. NNC(=O)c1[nH]c2ccc(S(N)(=O)=O)cc2c1-c1c(F)c(F)c(F)c(F)c1F
2. NNC(=O)c1[nH]c2ccc(S(N)(=O)=O)cc2c1-c1ccc(Br)cc1
3. Cc1cccc(-c2c(C(=O)NN)[nH]c3ccc(S(N)(=O)=O)cc23)c1
4. NNC(=O)c1[nH]c2ccc(S(N)(=O)=O)cc2c1-c1ccc(F)cc1
5. Cc1ccccc1-c1c(C(=O)NN)[nH]c2ccc(S(N)(=O)=O)cc12

Key:
1. 0.02
2. 3.54
3. 3.63
4. 2.58
5. 0.03
